target: hNTS2 receptor (Homo sapiens, UniProt O95665); construct: membranes prepared from them; assay: Competitive radioligand binding assay on the hNTS2 receptor; conditions: ratio IC50 for NTS1 : IC50 for NTS2
Sequence (O95665 whole entry): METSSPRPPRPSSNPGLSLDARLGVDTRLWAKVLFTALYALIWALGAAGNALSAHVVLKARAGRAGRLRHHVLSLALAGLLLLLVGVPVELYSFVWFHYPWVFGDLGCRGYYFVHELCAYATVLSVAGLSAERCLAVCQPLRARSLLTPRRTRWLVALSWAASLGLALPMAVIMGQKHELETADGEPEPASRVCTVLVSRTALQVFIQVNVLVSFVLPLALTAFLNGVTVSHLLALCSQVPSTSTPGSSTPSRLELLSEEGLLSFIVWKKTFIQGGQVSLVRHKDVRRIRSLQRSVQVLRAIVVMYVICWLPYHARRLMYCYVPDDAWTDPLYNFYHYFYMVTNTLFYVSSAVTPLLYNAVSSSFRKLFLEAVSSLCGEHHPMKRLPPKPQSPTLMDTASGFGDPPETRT
Where a SMILES comes first, the peptide text is derived from it. Bridges are numbered along the chain shown (N, C = ends). [ ]: non-standard residue; d: D form. AllylGly = C=CC[C@H](N)C(=O)O; Aic = NC1(C(=O)O)Cc2ccccc2C1
Endpoint Name: Selectivity
Respond with the number and no other words.

Kindly indicate its recorded Selectivity. Item: CC(C)C[C@H](NC(=O)C1(NC(=O)[C@@H]2CC=CC[C@H](N)C(=O)N[C@@H](CCCCN)C(=O)N[C@@H](CCCCN)C(=O)N2)Cc2ccccc2C1)C(=O)O [compound 164, c[G(All)KKG(All)]G(indanyl)L] (H-[AllylGly]KK[AllylGly][Aic]L-OH; staple 1-4)
10
